- Assay name: AUC in C57/BL6 mouse at 3 mg/kg, po measured up to 24 hrs by LC-MS/MS analysis
- Assay type: ADME, organism-based
- Set-up: dose 3 mg/kg, time < 24 hr, route oral
- Assay conditions: in vivo
Assay endpoint: log10 AUC at 24 h (log10 of the value in ng·h/mL)
Lab note - AUC at 24 h converted to log10 from values in ng·h/mL.

Here are 2 compounds together with their reported answers.
INSERT INTO assay_data (compound, experimental_result) VALUES
  ('N#CN=S(=O)(NC(=O)Nc1c2c(cc3c1CCC3)CCC2)c1ccc(C#N)cc1 (stereo unspecified)', 2.90),
  ('Cc1ccc(S(=O)(=NC#N)NC(=O)Nc2c3c(cc4c2CCC4)CCC3)cc1F (stereo unspecified)', 3.51);

log10 AUC at 24 h for N#CN=S(=O)(NC(=O)Nc1c2c(cc3c1CCC3)CCC2)c1cccc(C#N)c1 (stereo unspecified) is 3.08

log10 AUC at 24 h for N#CN=S(=O)(NC(=O)Nc1c2c(cc3c1CCC3)CCC2)c1ccccn1 (stereo unspecified) is 3.91

log10 AUC at 24 h for Cc1ccc(S(=O)(=NC#N)NC(=O)Nc2c3c(cc4c2CCC4)CCC3)cc1 (stereo unspecified) is 3.62

log10 AUC at 24 h for N#CN=S(=O)(NC(=O)Nc1c2c(cc3c1CCC3)CCC2)c1cccnc1 (stereo unspecified) is 3.11

====

# reported bioavailability; entries follow
- Assay name: Oral bioavailability in C57/BL6 mouse at 3 mg/kg measured up to 24 hrs by LC-MS/MS analysis
- Type: ADME, organism-based
- Assay conditions: in vivo
Expressed in %, but write only the number.

INSERT INTO assay_data (molecule, assay_endpoint, value_units, experimental_result) VALUES
  ('N#CN=S(=O)(NC(=O)Nc1c2c(cc3c1CCC3)CCC2)c1ccccn1 (stereo unspecified)', 'bioavailability', '%', 97),
  ('N#CN=S(=O)(NC(=O)Nc1c2c(cc3c1CCC3)CCC2)c1cccnc1 (stereo unspecified)', 'bioavailability', '%', 24),
  ('N#CN=S(=O)(NC(=O)Nc1c2c(cc3c1CCC3)CCC2)c1cccc(C#N)c1 (stereo unspecified)', 'bioavailability', '%', 40),
  ('N#CN=S(=O)(NC(=O)Nc1c2c(cc3c1CCC3)CCC2)c1ccc(C#N)cc1 (stereo unspecified)', 'bioavailability', '%', 27),
  ('Cc1ccc(S(=O)(=NC#N)NC(=O)Nc2c3c(cc4c2CCC4)CCC3)cc1 (stereo unspecified)', 'bioavailability', '%', 56);

Next molecule, please.
bioavailability for Cc1ccc(S(=O)(=NC#N)NC(=O)Nc2c3c(cc4c2CCC4)CCC3)cc1F (stereo unspecified) is 59

====

- Assay name: Half life in C57/BL6 mouse at 3 mg/kg, po measured up to 24 hrs by LC-MS/MS analysis
- Assay type: ADME, organism-based
- Assay conditions: in vivo
Consider the cut-off 2 h. If the recorded half-life is strictly smaller, the label is YES; if not, the label is NO.

INSERT INTO assay_data (compound, category) VALUES
  ('N#CN=S(=O)(NC(=O)Nc1c2c(cc3c1CCC3)CCC2)c1cccc(C#N)c1 (stereo unspecified)', 'YES'),
  ('Cc1ccc(S(=O)(=NC#N)NC(=O)Nc2c3c(cc4c2CCC4)CCC3)cc1F (stereo unspecified)', 'NO'),
  ('Cc1ccc(S(=O)(=NC#N)NC(=O)Nc2c3c(cc4c2CCC4)CCC3)cc1 (stereo unspecified)', 'NO');

Ask: Record N#CN=S(=O)(NC(=O)Nc1c2c(cc3c1CCC3)CCC2)c1ccc(C#N)cc1 (stereo unspecified) : is its half-life strictly below 2 h?
Reply: YES

Ask: Record N#CN=S(=O)(NC(=O)Nc1c2c(cc3c1CCC3)CCC2)c1ccccn1 (stereo unspecified) : is its half-life strictly below 2 h?
Reply: NO

Ask: Record N#CN=S(=O)(NC(=O)Nc1c2c(cc3c1CCC3)CCC2)c1cccnc1 (stereo unspecified) : is its half-life strictly below 2 h?
Reply: YES
